readout: melting point

Example results:
**Q:** Any idea what its melting point is? The compound is CC(C)(C)C(O)C(=CC1CCCCC1)n1cncn1 (stereo unspecified)
**A:** 145 to 148 °C

**Q:** Item: CCN(CC)c1ccc(C2(c3c(C)n(CCOc4ccccc4)c4ccccc34)OC(=O)c3ccccc32)c(C)c1 (stereo unspecified)
**A:** 182 to 183 °C

**Q:** Then this compound: CNc1cc(S(=O)(=O)c2ccc(N)cc2)cc(C)n1
**A:** 126 to 127 °C

**Q:** Now give it for CCCNc1cc(=O)[nH]c(-c2ccccc2OCCC)n1 too.
**A:** 172 to 173 °C

**Q:** Please give the result for CCC(C)C(C#N)NCC(O)c1ccccc1 (stereo unspecified) too.
**A:** 106 to 108 °C

New cases:
**Q:** Please give the measured melting point for this compound: CC(C)C(=O)c1cccn1N1C(=O)c2ccccc2C1=O
**A:** 147 to 149 °C

**Q:** What about CCCCc1ccc(C#CC(C)N(O)C(N)=O)s1 (stereo unspecified) ?
**A:** 104 to 106 °C

* * *

In this section we review reported melting point values for a set of molecules.

These solved cases illustrate the format of a correct answer.
**Q:** Which melting point is listed for COC(=O)Cc1ccc(C(=C2CC(C)(C)CC(C)(C)C2)c2ccc(O)cc2)cc1 ?
**A:** 154 to 155 °C

**Q:** For O=C1Nc2ccccc2C12COc1cc3c(cc12)CCCC3 (stereo unspecified) then?
**A:** > 230 °C

**Q:** Next up: COc1ccc2c(Cc3c(Cl)cncc3Cl)n[nH]c(=O)c2c1
**A:** 259 to 262 °C

***
**Q:** // returns reported melting point for input COc1nccnc1C1(Cl)CN2CCC1CC2 (stereo unspecified)
**A:** 59 to 60 °C

**Q:** What would you report for CCCCCCSc1nn2c(=O)cc(O)nc2s1 ?
**A:** 187 to 192 °C

**Q:** Now consider O=C1c2cc(OCc3ccc4ccccc4n3)ccc2OCC1Oc1cccnc1 (stereo unspecified) .
**A:** 174 to 175 °C

* * *

readout: melting point

**Q:** Sample O=C(O)c1ccc(OC2=C3N=C4CCCCC4=C3C(Cc3ccc(Br)cc3)C=C2)o1 (stereo not given) — what was its melting point?
**A:** 156 to 158 °C

Continuing:
**Q:** Requested read-out: melting point. Entry: NCc1ccc(-n2c(-c3cccnc3N)nc3ccc(-c4cn[nH]c4)nc32)cc1
**A:** 264 to 269 °C

**Q:** Now the molecule N#Cc1ccc2c(c1)CC[C@@H]1CC(=O)CC[C@@]21Cc1ccccc1
**A:** 128 to 129 °C

**Q:** Another molecule to look at: COC(=O)CCSc1cc(=O)c2c(O)cc(O)c(C3CCN(C)CC3O)c2o1 (stereo not given)
**A:** 78 °C

**Q:** Cc1ccc(I)c(C(O)(C(F)(F)F)C(F)(F)F)c1 ?
**A:** 38 to 39 °C

**Q:** And for O=C1c2ccccc2C(=O)N1Cc1ccc(SC(F)(F)F)cc1 ?
**A:** 130 to 132 °C

**Q:** # repeat for CC(=O)N1c2ccccc2Sc2c(O)c(O)c3ccccc3c21
**A:** 258 to 260 °C

**Q:** Another molecule to check: N#Cc1cc([N+](=O)[O-])ccc1N1CCC(=O)CC1
**A:** 109 °C

**Q:** Check CCOC(=O)c1ccc(OCCCCCCCCCCCCCCCCCCCCOc2ccc(Cl)cc2)cc1 too.
**A:** 78 to 80 °C

**Q:** Try the molecule CC1(C)CC(C(O)CNc2nc(Cl)nc(NCC(O)C3CC(C)(C)NC(C)(C)C3)n2)CC(C)(C)N1 (stereo not given)
**A:** 206 to 207 °C
